Test system: Mycobacterium tuberculosis
Test: Antitubercular activity against Mycobacterium tuberculosis infected in mouse assessed as reduction in microbial load at 2 to 3 mg ip, pretreated for 48 to 72 hrs followed by microbial infection and subsequent compound dosing at 48 to 72 hrs post-infection measured 24 to 32 days post-infection relative to control
Format: functional
Design: scale not given: the % may be the effect or the level left

Compound smiles | Activity
CCCCCCCCCCCCOc1c2cc(S(=O)(=O)O)cc1Cc1cc(S(=O)(=O)O)cc(c1OCCCCCCCCCCCC)Cc1cc(S(=O)(=O)O)cc(c1OCCCCCCCCCCCC)Cc1cc(S(=O)(=O)O)cc(c1OCCCCCCCCCCCC)Cc1cc(S(=O)(=O)O)cc(c1OCCCCCCCCCCCC)Cc1cc(S(=O)(=O)O)cc(c1OCCCCCCCCCCCC)Cc1cc(S(=O)(=O)O)cc(c1OCCCCCCCCCCCC)Cc1cc(S(=O)(=O)O)cc(c1O)C2 | 50 - 80%

* * *

# maps each entry to its Survival
Test system: Plasmodium berghei
Experiment: Antimalarial activity against Plasmodium berghei infected in albino mouse assessed survival against infection at 400 mg/kg, sc administered as single dose
Type: functional
Assay readout: Survival (weeks)

Compound smiles | Assay target | Assay readout | Relation | Test result
CC(=O)Nc1ccc(S(=O)(=O)c2ccc(N)cc2)cc1 | Plasmodium berghei | Survival | = | 3.5
Nc1ccc(S(=O)(=O)c2ccc(N)cc2)cc1 | Plasmodium berghei | Survival | < | 1
CC(=O)Nc1ccc(S(=O)(=O)c2ccc(NC(C)=O)c(C)c2)cc1 | Plasmodium berghei | Survival | = | 9
CC(=O)N(C)c1ccc(S(=O)(=O)c2ccc(N(C)C(C)=O)cc2)cc1 | Plasmodium berghei | Survival | = | 9
CC(=O)Nc1ccc(S(=O)(=O)c2ccc(NC(C)=O)cc2)cc1 | Plasmodium berghei | Survival | = | 12
CC(=O)Nc1ccc(S(=O)(=O)c2ccc(N(C)C(C)=O)cc2)cc1 | Plasmodium berghei | Survival | = | 6

* * *

# maps each entry to its Ratio
System: Mycolicibacterium smegmatis
Test: Inhibition of Mycobacterium smegmatis ATCC 607 dihydrofolic reductase assessed as ratio of Km to Ki
Assay readout: Ratio

Compound | Test result
CCCCc1cnc2nc(N)nc(N)c2n1 | 4100
Cc1cnc2nc(N)nc(N)c2n1 | 0.8
CC(C)Cc1cnc2nc(N)nc(N)c2n1 | 4560
CC(C)CCc1cnc2nc(N)nc(N)c2n1 | 4100
COc1cc(Cc2cnc(N)nc2N)cc(OC)c1OC [TRIMETHOPRIM] | 54.6
CCc1nc(N)nc(N)c1-c1ccc(Cl)cc1 [PYRIMETHAMINE] | 0.8
Nc1nc(N)c2nc(Cc3ccc(Cl)c(Cl)c3)cnc2n1 | 58.5

* * *

Experiment: Plasma concentration in rifampin-susceptible Mycobacterium leprae infected in BALB/c mouse at 6 mg/kg administered with food daily for 12 weeks by high-pressure liquid chromatography analysis
Assay type: ADME, organism-based
Conditions: po

Compound smiles | Unit of measurement | concentration at 2016 h
CO[C@H]1/C=C/O[C@@]2(C)Oc3c(C)c(O)c4c(c3C2=O)C2=NC3(CCN(CC(C)C)CC3)NC2=C(NC(=O)/C(C)=C\C=C\[C@H](C)[C@H](O)[C@@H](C)[C@@H](O)[C@@H](C)[C@H](OC(C)=O)[C@@H]1C)C4=O | ng/mL | 90
